- measured on: Folate receptor-alpha (FOLR1) (human) (UniProt P15328)
- Sequence (P15328 25-234): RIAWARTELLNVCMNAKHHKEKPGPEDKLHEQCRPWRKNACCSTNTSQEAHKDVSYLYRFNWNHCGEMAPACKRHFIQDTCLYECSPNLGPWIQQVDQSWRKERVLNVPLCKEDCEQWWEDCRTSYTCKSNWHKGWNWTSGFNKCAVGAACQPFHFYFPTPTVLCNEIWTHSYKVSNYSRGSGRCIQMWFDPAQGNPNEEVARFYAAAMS
- protocol notes: summary table; FRα affinity over CD3 affinity
reported property: Affinity ratio (FRα:CD3)

[
  {
    "binder": "Fab1-HK129-5KPEG-Folate (Fab, V domains shown, pAF at HK129 (Kabat) conjugated to a bifunctional linker carrying folate and a linear 5K PEG (oxime), From E. coli; also called Fab1-5KPEG-Folate) VH: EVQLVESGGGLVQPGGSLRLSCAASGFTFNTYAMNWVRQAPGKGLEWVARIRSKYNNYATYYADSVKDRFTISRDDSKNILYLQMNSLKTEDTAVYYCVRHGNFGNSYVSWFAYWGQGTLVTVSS VL: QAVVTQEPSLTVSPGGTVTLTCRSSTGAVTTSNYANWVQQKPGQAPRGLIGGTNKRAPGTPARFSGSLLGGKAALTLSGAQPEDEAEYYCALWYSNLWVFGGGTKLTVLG",
    "reported property": "Affinity ratio (FRα:CD3)",
    "value reported": 26
  }
]
